The origin of these recorded values is ChEMBL document CHEMBL3421611.

- target_of_assay: Cannabinoid receptor 1 (Homo sapiens, UniProt P21554)
- Sequence (P21554 whole entry): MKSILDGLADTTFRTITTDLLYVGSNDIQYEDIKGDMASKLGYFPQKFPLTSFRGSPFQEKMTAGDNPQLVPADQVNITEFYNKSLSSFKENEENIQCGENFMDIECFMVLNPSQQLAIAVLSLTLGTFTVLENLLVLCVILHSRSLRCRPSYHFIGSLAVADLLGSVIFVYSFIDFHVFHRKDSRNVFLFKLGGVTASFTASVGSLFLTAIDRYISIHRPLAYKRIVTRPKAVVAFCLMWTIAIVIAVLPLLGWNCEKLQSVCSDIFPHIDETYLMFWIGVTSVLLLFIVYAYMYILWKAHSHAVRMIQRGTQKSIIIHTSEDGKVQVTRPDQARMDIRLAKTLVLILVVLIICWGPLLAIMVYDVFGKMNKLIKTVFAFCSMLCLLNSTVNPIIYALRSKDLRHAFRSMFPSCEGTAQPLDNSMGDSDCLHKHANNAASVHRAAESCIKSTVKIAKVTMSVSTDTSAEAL
- protocol_summary: Displacement of [3H]-CP-55940 from recombinant human CB1 receptor overexpressed in HEK293 cell membranes after 90 mins
pKi: −log10 of the molar value.
Items are presented alongside their recorded pKi.

compound: CC1CCC(NC(=O)c2c(O)c3cccnc3n(Cc3ccc(F)cc3)c2=O)CC1 (stereo not given)
qual: =
pKi: 6.86
//
compound: CC1CCC(NC(=O)c2c(O)c3cccnc3n(CCN3CCOCC3)c2=O)CC1 (stereo not given)
qual: =
pKi: 6.20
//
compound: CCCCn1c(=O)c(C(=O)NC2CCC(C)CC2)cc2ccccc21 (stereo not given)
qual: =
pKi: 6.26
//
compound: CC1CCC(NC(=O)c2cc3ccccc3n(CCCO)c2=O)CC1 (stereo not given)
qual: =
pKi: 5.42
//
compound: CCCCCn1c(=O)c(C(=O)NC2CCC(C)CC2)cc2ccccc21 (stereo not given)
qual: =
pKi: 6.64
//
compound: CCCCn1c(=O)c(C(=O)NC2CCC(C)CC2)c(O)c2cccnc21 (stereo not given)
qual: =
pKi: 6.15
//
compound: CC1CCC(NC(=O)c2cc3ccccc3n(Cc3ccc(F)cc3)c2=O)CC1 (stereo not given)
qual: =
pKi: 7.71
//
compound: CC1CCC(NC(=O)c2c(O)c3cccnc3n(CCCO)c2=O)CC1 (stereo not given)
qual: <
pKi: 5.00
//
compound: CCCn1c(=O)c(C(=O)NC2CCC(C)CC2)cc2ccccc21 (stereo not given)
qual: =
pKi: 5.58
//
compound: CC1CCC(NC(=O)c2cc3ccccc3n(CCN3CCOCC3)c2=O)CC1 (stereo not given)
qual: =
pKi: 6.10
